Reported inhibition at 10 µM is given for each of the following compounds.
target: human Edg-1 (S1P1) (Homo sapiens, UniProt P21453); construct: expressed in transfected cells; host or cells: HEK-293; assay: S1P1 binding inhibition test (membrane, [33P]-S1P); conditions: compound 10 μM; [33P]-S1P 0.1 nM; human Edg-1 (S1P1) HEK-293 membrane fraction; read-out: Binding test (membrane) % inhibition (10 μM)
Sequence (P21453 whole entry): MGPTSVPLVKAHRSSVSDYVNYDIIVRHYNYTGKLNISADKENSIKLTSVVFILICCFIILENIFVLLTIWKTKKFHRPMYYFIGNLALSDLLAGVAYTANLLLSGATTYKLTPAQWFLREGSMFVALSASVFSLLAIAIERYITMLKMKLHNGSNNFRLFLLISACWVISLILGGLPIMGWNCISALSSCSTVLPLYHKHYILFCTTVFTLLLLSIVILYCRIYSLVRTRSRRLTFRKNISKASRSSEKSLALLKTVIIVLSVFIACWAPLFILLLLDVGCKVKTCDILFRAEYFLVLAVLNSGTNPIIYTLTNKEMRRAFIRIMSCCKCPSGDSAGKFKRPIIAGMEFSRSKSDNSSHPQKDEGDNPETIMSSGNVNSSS
Kindly report the value followed by its unit.

compound="CCn1c(C(C)NS(=O)(=O)c2ccc(S(C)(=O)=O)cc2)cnc1Oc1ccc(C)cc1 (centres unmarked) [Compound 25]" result=62%
compound="CCn1c(C(C)NS(=O)(=O)c2ccc(Cl)c(Cl)c2)cnc1OCCCN1CCOCC1 (centres unmarked) [Compound 228]" result=96%
compound="CCn1c(C(C)NS(=O)(=O)c2cc(C)ccc2OC)cnc1Oc1ccc(C)cc1 (centres unmarked) [Compound 73]" result=74.3%
compound="CCn1c(C(C)NS(=O)(=O)c2ccc(Br)cc2OC(F)(F)F)cnc1Oc1ccc(C)cc1 (centres unmarked) [Compound 10]" result=68.6%
compound="CCn1c(C(C)NS(=O)(=O)c2ccc(Cl)c(Cl)c2)cnc1OCC(F)(F)F (centres unmarked) [Compound 224]" result=87%

// query For the compound CCn1c(C(C)NS(=O)(=O)c2ccc(Cl)c(Cl)c2)cnc1OC1CCC1 (centres unmarked) [Compound 231] , what inhibition at 10 µM is on record?
// result 97.4%

// query Another compound to look at: CCn1c(C(C)NS(=O)(=O)c2ccc(F)c3ccccc23)cnc1Oc1ccc(C)cc1 (centres unmarked) [Compound 162]
// result 70.2%

// query Another compound to look at: CCn1c(C(C)NS(=O)(=O)c2cccc3ccccc23)cnc1Oc1ccc(C)cc1 (centres unmarked) [Compound 27]
// result 68.5%

----------
molecular target: human Edg-1 (S1P1) (Homo sapiens, UniProt P21453); construct: expressed in transfected cells; host or cells: HEK-293; assay: S1P1 binding inhibition test (membrane, [33P]-S1P); details: compound 10 μM; [33P]-S1P 0.1 nM; human Edg-1 (S1P1) HEK-293 membrane fraction; read-out: Binding test (membrane) % inhibition (10 μM)
property label: inhibition at 10 µM (%)
The reply should be a number in %, with the unit left off.

compound="CCn1c(C(C)NS(=O)(=O)c2cc(F)cc(F)c2)cnc1Oc1ccc(C)cc1 (centres unmarked) [Compound 119]" property_label="inhibition at 10 µM" display_unit=% recorded_number=91.1
compound="C#CCCCOc1ncc(C(C)NS(=O)(=O)c2ccc(Cl)c(Cl)c2)n1CC (centres unmarked) [Compound 226]" property_label="inhibition at 10 µM" display_unit=% recorded_number=91.5
compound="CCn1c(C(Cc2ccccc2)NS(=O)(=O)c2ccc(Cl)c(Cl)c2)cnc1Oc1ccc(F)cc1 (centres unmarked) [Compound 193]" property_label="inhibition at 10 µM" display_unit=% recorded_number=98.6
compound="CCn1c(C(C)NS(=O)(=O)c2ccc3c(Cl)cccc3c2)cnc1Oc1ccc(F)cc1 (centres unmarked) [Compound 187]" property_label="inhibition at 10 µM" display_unit=% recorded_number=101
compound="CCn1c(C(C)NS(=O)(=O)c2ccc(Cl)c(Cl)c2)cnc1Oc1cccc(N2CCCCC2)c1 (centres unmarked) [Compound 208]" property_label="inhibition at 10 µM" display_unit=% recorded_number=99.6
compound="CCn1c(C(C)NS(=O)(=O)c2ccc(Cl)cc2F)cnc1Oc1ccc(C)cc1 (centres unmarked) [Compound 120]" property_label="inhibition at 10 µM" display_unit=% recorded_number=81.2
compound="CCn1c(C(C)NS(=O)(=O)c2cc(C)ccc2F)cnc1Oc1ccc(C)cc1 (centres unmarked) [Compound 134]" property_label="inhibition at 10 µM" display_unit=% recorded_number=81
compound="CCc1cc(Br)ccc1S(=O)(=O)NC(C)c1cnc(Oc2ccc(C)cc2)n1CC (centres unmarked) [Compound 87]" property_label="inhibition at 10 µM" display_unit=% recorded_number=65.6

// query For the compound CCn1c(C(C)NS(=O)(=O)c2cc(F)c(F)cc2F)cnc1Oc1ccc(C)cc1 (centres unmarked) [Compound 109] , what inhibition at 10 µM is on record?
// result 81.3

// query Another compound to look at: CCn1c(C(C)NS(=O)(=O)c2cc(OC)ccc2OC)cnc1Oc1ccc(C)cc1 (centres unmarked) [Compound 81]
// result 83.1

// query Another compound to look at: CCn1c(C(C)NS(=O)(=O)c2cc(C)ccc2C)cnc1Oc1ccc(C)cc1 (centres unmarked) [Compound 45]
// result 85.8

// query Another compound to look at: CCn1c(C(C)NS(=O)(=O)c2c(F)cccc2F)cnc1Oc1ccc(C)cc1 (centres unmarked) [Compound 103]
// result 53

// query Another compound to look at: CCn1c(C(C)NS(=O)(=O)c2ccc(F)c(C#N)c2)cnc1Oc1ccc(C)cc1 (centres unmarked) [Compound 114]
// result 96.8

----------
Reported inhibition at 10 µM is given for each of the following compounds.
biological target: human Edg-1 (S1P1) (Homo sapiens); construct: expressed in transfected cells; host or cells: HEK-293; assay: S1P1 binding inhibition test (membrane, [33P]-S1P); settings: compound 10 μM; [33P]-S1P 0.1 nM; human Edg-1 (S1P1) HEK-293 membrane fraction; read-out: Binding test (membrane) % inhibition (10 μM)
The reply should be a number in %, with the unit left off.

compound="CCn1c(C(C)NS(=O)(=O)c2ccccc2Br)cnc1Oc1ccc(C)cc1 (centres unmarked)" recorded_number=63.3
compound="CCn1c(C(C)NS(=O)(=O)c2ccc(Cl)c(Cl)c2)cnc1OCCCCCCN(C)C (centres unmarked)" recorded_number=94
compound="CCn1c(C(C)NS(=O)(=O)c2cc(C)oc2C(F)(F)F)cnc1Oc1ccc(C)cc1 (centres unmarked)" recorded_number=58.8
compound="CCn1c(C(C)NS(=O)(=O)c2ccc(Cl)c(Cl)c2)cnc1Oc1ccc(OCCN(C)C)cc1 (centres unmarked)" recorded_number=99
compound="CCn1c(C(C)NS(=O)(=O)c2ccc3c(Cl)cccc3c2)cnc1Oc1cccc(N2CCN(C)CC2)c1 (centres unmarked)" recorded_number=100
compound="CCn1c(C(C)NS(=O)(=O)c2ccc(Cl)c(Cl)c2)cnc1Oc1cccc(N(C)C)c1 (centres unmarked)" recorded_number=97.8
compound="CCn1c(C(C)NS(=O)(=O)c2c(C)cc(OC)c(C)c2C)cnc1Oc1ccc(C)cc1 (centres unmarked)" recorded_number=64.7
compound="CCn1c(C(C)NS(=O)(=O)c2ccccc2)cnc1Oc1ccc(C)cc1 (centres unmarked)" recorded_number=72.8
compound="CCn1c(C(C)NS(=O)(=O)c2ccc3nsnc3c2)cnc1Oc1ccc(C)cc1 (centres unmarked)" recorded_number=73.2
compound="CCn1c(C(C)NS(=O)(=O)c2sc3ccc(Cl)cc3c2C)cnc1Oc1ccc(C)cc1 (centres unmarked)" recorded_number=76.5

// query For the compound CCn1c(C(C)NS(=O)(=O)c2ccc(Cl)c(Cl)c2)cnc1Oc1ccc(OC)cc1 (centres unmarked) , what inhibition at 10 µM is on record?
// result 102

----------
molecular target: human Edg-1 (S1P1) (Homo sapiens, UniProt P21453); construct: expressed in transfected cells; host or cells: HEK-293; assay: S1P1 binding inhibition test (membrane, [33P]-S1P); conditions: compound 10 μM; [33P]-S1P 0.1 nM; human Edg-1 (S1P1) HEK-293 membrane fraction; read-out: Binding test (membrane) % inhibition (10 μM)
Reported inhibition at 10 µM is given for each of the following compounds.
The reply should be a number in %, with the unit left off.

// query For the compound CC(NS(=O)(=O)c1ccc(Cl)c(Cl)c1)c1cnc(Oc2ccc(F)cc2)n1C (stereo not drawn) , what inhibition at 10 µM is on record?
// result 92.2

// query Another compound to look at: CCn1c(C(C)N(C)S(=O)(=O)c2ccc(Cl)c(Cl)c2)cnc1Oc1ccc(Cl)cc1 (stereo not drawn)
// result 90.2

// query Another compound to look at: CCn1c(C(C)NS(=O)(=O)c2ccc(Cl)c(Cl)c2)cnc1Oc1cccc(C2CCN(C)CC2)c1 (stereo not drawn)
// result 101

// query Another compound to look at: CCn1c(C(C)NS(=O)(=O)c2ccc(Cl)c(Cl)c2)cnc1Oc1ccc(C)c(C)c1 (stereo not drawn)
// result 101

// query Another compound to look at: CCn1c(C(C)NS(=O)(=O)c2ccc(Br)cc2C)cnc1Oc1ccc(C)cc1 (stereo not drawn)
// result 74.2

// query Another compound to look at: CCCc1ccc(S(=O)(=O)NC(C)c2cnc(Oc3ccc(C)cc3)n2CC)cc1 (stereo not drawn)
// result 57.3

----------
biological target: human Edg-1 (S1P1) (Homo sapiens, UniProt P21453); construct: expressed in transfected cells; host or cells: HEK-293; assay: S1P1 binding inhibition test (membrane, [33P]-S1P); conditions: compound 10 μM; [33P]-S1P 0.1 nM; human Edg-1 (S1P1) HEK-293 membrane fraction; read-out: Binding test (membrane) % inhibition (10 μM)
property label: inhibition at 10 µM (%)
The reply should be a number in %, with the unit left off.

See these solved cases before continuing.
molecule="CCn1c(C(C)NS(=O)(=O)c2ccc(-c3csnn3)s2)cnc1Oc1ccc(C)cc1 (centres unmarked)" recorded_number=58.8
molecule="CCn1c(C(C)NS(=O)(=O)c2c(Cl)cccc2Cl)cnc1Oc1ccc(C)cc1 (centres unmarked)" recorded_number=72.8
molecule="CCn1c(C(C)NS(=O)(=O)c2ccc(Cl)c(Cl)c2)cnc1Oc1ccc2cc[nH]c2c1 (centres unmarked)" recorded_number=101
molecule="CCn1c(C(C)NS(=O)(=O)c2ccc(Cl)cc2)cnc1Oc1ccc(C)cc1 (centres unmarked)" recorded_number=103

--- query ---
// query For the molecule CCn1c(C(C)NS(=O)(=O)c2ccc3cccc(Cl)c3c2)cnc1Oc1cccc(N2CCN(C)CC2)c1 (centres unmarked) , what inhibition at 10 µM is on record?
// result 99.9

Where these numbers come from: patent US7994204B2
